measured attribute: melting point

Field melting point (entry O=C(N/N=C/c1cc(O)ccc1O)c1cccc(I)c1 ) reads 220 to 224 °C

Field melting point (entry O=C(N/N=C/c1cc(Cl)cc(I)c1O)c1cccc(I)c1 ) reads 205 to 208 °C

Field melting point (entry CCOc1cccc(/C=N/NC(=O)c2cccc(I)c2)c1O ) reads 115 to 121 °C

Field melting point (entry O=C(N/N=C/c1cc(O)ccc1O)c1ccc(I)cc1 ) reads 261 to 265 °C

Field melting point (entry O=C(N/N=C/c1cccc([N+](=O)[O-])c1O)c1ccccc1I ) reads 240 to 245 °C

Field melting point (entry O=C(N/N=C/c1cc(Br)cc(Br)c1O)c1cccc(I)c1 ) reads 210 to 211 °C

Field melting point (entry NNC(=O)c1ccccc1I [Compound 4, 2-iodobenzohydrazide] ) reads 182 to 189 °C

Field melting point (entry CCOc1cccc(/C=N/NC(=O)c2ccccc2I)c1O ) reads 167 to 170 °C

Field melting point (entry NNC(=O)c1cccc(I)c1 [Compound 5, 3-iodobenzohydrazide] ) reads 134 to 140 °C

Field melting point (entry O=C(N/N=C/c1cc(Cl)cc(Cl)c1O)c1cccc(I)c1 ) reads 210 to 212 °C

Field melting point (entry O=C(N/N=C/c1ccccc1O)c1ccc(I)cc1 ) reads 195 to 205 °C

Field melting point (entry CCOc1cccc(/C=N/NC(=O)c2ccc(I)cc2)c1O ) reads 200 to 207 °C

Field melting point (entry O=C(N/N=C/c1cc(Cl)cc(I)c1O)c1ccccc1I ) reads 215 to 220 °C

----------
Give measured MBC for each item. Keep answers brief.
# System: Bacillus subtilis ATCC 6633
# test protocol: Broth microdilution MIC/MBC
# experimental setup: ATCC6633

Field MBC (entry O=C(N/N=C/c1cc(Cl)cc(I)c1O)c1ccccc1I ) reads > 1000 µg/mL

Field MBC (entry O=C(N/N=C/c1cccc([N+](=O)[O-])c1O)c1ccccc1I ) reads > 1000 µg/mL

Field MBC (entry O=C(N/N=C/c1cc(Cl)cc(Cl)c1O)c1ccc(I)cc1 ) reads > 1000 µg/mL

Field MBC (entry NNC(=O)c1ccc(I)cc1 [Compound 6, 4-iodobenzohydrazide] ) reads > 1000 µg/mL

Field MBC (entry NNC(=O)c1cccc(I)c1 [Compound 5, 3-iodobenzohydrazide] ) reads > 1000 µg/mL

Field MBC (entry CCOc1cccc(/C=N/NC(=O)c2cccc(I)c2)c1O ) reads > 1000 µg/mL

Field MBC (entry O=C(N/N=C/c1cc(O)ccc1O)c1ccc(I)cc1 ) reads > 1000 µg/mL

Field MBC (entry O=C(N/N=C/c1ccccc1O)c1ccc(I)cc1 ) reads > 1000 µg/mL

----------
measured attribute: MIC

Hey, Bacillus subtilis ATCC 6633 data for CCOc1cccc(/C=N/NC(=O)c2ccc(I)cc2)c1O : MIC came out at > 1000 µg/mL

Hey, Bacillus subtilis ATCC 6633 data for CCOc1cccc(/C=N/NC(=O)c2ccccc2I)c1O : MIC came out at > 1000 µg/mL

Hey, Bacillus subtilis ATCC 6633 data for O=C(N/N=C/c1cc(Br)cc(Br)c1O)c1ccc(I)cc1 : MIC came out at > 1000 µg/mL
